procedure_text: folding stability dG unfold from trypsin proteolysis; higher = more stable
folding stability dG unfold by entry:
Answer with a number only, understood to be in kJ/mol.

Notebook: SAGGSAGGSAGGAKTTTLGSESEEEIRAVAAKLPADSTITTNRPGGTSVITVSPNEIVTNSAGGSAGGSAGG [r7_560_JUSTAS] , folding stability dG unfold read as 0.602

Entry SAGMPVTVTSTSDPENGSTTVPRTHPTGPVVTVTITKLPPGELRVTVDAGTTVTLYTLPPDALTTFTTPSAG [r5_14_JUSTAS] — recorded folding stability dG unfold = 2.13

Lab note: measured folding stability dG unfold of SAGGALKELPDGSVELYYNTETGLFTVRVRHPDKPPLVFTVESPEDALKFAKALEEKGIKIDKVVPAPSAGG [r13_727_TrMRF] was 8.79

Measured folding stability dG unfold, SAGGSAGGSMKVVKILSIETKAEKDEEVLTIPVLDPANGKVITLTVSPEVAKTITTDDEIELLSAGGSAGGS [r12_382_JUSTAS] : 0.743

folding stability dG unfold reported for this sequence SAVEIEFWFPGGMSVEEFVNEFSKILPGLRDVDIGVEPYPETDMWKVTATIRIVPPPSPEDQEEMQKNKSAG [r14_645_TrROS] : 5.77

Consider SAGGSGMTETIKLSDPKNGLSVTVTVTFDPATGSKSVTITVESSEEAKEKVKALLEEKGLPVTVTSSAGGSA [r2_30_JUSTAS] . Its measured folding stability dG unfold is 3

Per the records, this sequence ( SAPKILKVETFPDGSIKVEIPLPETGAIVTITVDPDGNVVVEFYPPKSGKPVRKTIPGKTIEEVLKELGSAG [r14_760_TrMRF] ) has folding stability dG unfold equal to 5.88

---

The sequences listed here are annotated with their folding stability dG unfold.
procedure_text: folding stability dG unfold (combined trypsin and chymotrypsin); higher = more stable
Report the figure in kcal/mol without appending any unit label.

The reported value for SAGGSAGGWIEINILVPLKPGQTPSELADEIAQEFQNQHGWEIKIDDVYPTDNYVWHKIEITPPSAGGSAGG [r6_639_TrROS] in terms of folding stability dG unfold is 1.29

For reference, reported folding stability dG unfold for SAGGSAGGSMIFFPNITKEEFEEIFRKKGYKVKRYPSTNVIEVTGKDGKPIKAVVIPVSPEEFSAGGSAGGS [r12_211_TrMRF] stands at 0.668

// folding stability dG unfold lookup, sequence = SAGGDGPPKFEPISIPIGDGVIKIWRSPNGSIHLEIMPPGGKPVASKEYPFPDGRKLKLDIQVKPPEDSAGG [r13_584_TrROS] , result: 0.466

---

procedure_text: folding stability dG unfold from chymotrypsin proteolysis; higher = more stable
Where folding stability dG unfold equals or exceeds 0.8 kcal/mol, the correct label is fulfilled; where it does not, the label is not fulfilled.

| sequence_chain | label_value |
| --- | --- |
| SAGGSPVYKVEIRMTIVDKNGTVKSIVNLELTFKTEEEIEKFLESIPKETVVEIEIEKRTVEPPEKLSAGGS [r16_677_JUSTAS] | not fulfilled |
| NRYYRITIRNPDGMPIELFVRRSPNGEYMVRVKINMPNKKPKTIWFPFKSPEDILEEIRKHLPWDIEIEPWS [r1_137_TrROS] | fulfilled |
| SAGGSAGGDIKIEDIEYEQNPGGWQKVEVRLPGNGRPIEVPVPPGMPYEQAKDWAKDWAEELLKSAGGSAGG [r6_628_TrROS] | not fulfilled |
| SAGGSAGGSAGGSNIPSDSTVTSKGSSDTTTSTYYNPETGTTLVTTTPPDGVPTTTTTASAGGSAGGSAGGS [r10_592_JUSTAS] | not fulfilled |
| SAGGSAGGSAGGGMARAEKLPSSWTLVSVTPRDGSTVVTYKLPDGSTLTLDLRPDSYDGASAGGSAGGSAGG [r7_775_JUSTAS] | fulfilled |
| SAGGMLLLTLTVDRVEEAEFPEKVPYLRTTTQPVVVPGTTLEEAEAVAAALAAAHGVPVTLTVTPETGSAGG [r13_320_JUSTAS] | not fulfilled |

-- ask I'd appreciate it if you could say whether SAGGSALKVKSVHQNPDDNYYMITVTIPGPDKAPREIMFPSPEDLEDKLDNLPPGIESVEIHPMKPSAGGSA [r15_589_TrROS] has folding stability dG unfold at least equal to 0.8 kcal/mol.
-- reply not fulfilled

-- ask State whether the measured folding stability dG unfold reaches 0.8 kcal/mol, counting equality as reaching it, for SMVVIEVEPNPETNSLTAKVYLPKDGKKVVEIERSPDGTVKVTVYYKDGSKEEFTFPEDIPIEEAIKKAISA [r9_346_TrMRF]
-- reply fulfilled

-- ask Exam item: decide whether the reported folding stability dG unfold for SAGGSAGGSAGGMKPGEKPEVEYRVRIYDADTGEWREVPLEDLKKLKLPPGAVVEIEKVSAGGSAGGSAGGS [r10_1121_TrROS_Hall] is at least 0.8 kcal/mol.
-- reply fulfilled

-- ask Would you say SVPPNAPPGMKPKRVEIFIFIPPELYDKDGKISPEQLKKAKGMAKMIKLRLREQYPGYGIDDVKVHIMPGSA [r9_943_TrROS] shows folding stability dG unfold at minimum 0.8 kcal/mol?
-- reply fulfilled

-- ask Assess whether reported folding stability dG unfold for SAGGSAGGSSVSVGVPSSYASVEVTVLKEEPGKGLVTVKVTTTVPGTGEVLTETVTIPRSELLSAGGSAGGS [r12_964_JUSTAS] sits at 0.8 kcal/mol or higher.
-- reply not fulfilled
